Known Relative activity on ATP, pH 4.5 of a selection of molecules
experiment: pH profile of enzymes on 1 mM ATP; assay type: biochemical; settings: 50 mM trisodium citrate/citric acid, 5 mM CaCl2, relative to the highest value
Answer field: number only, no words.

CRC25100: Acid phosphatase (Class A), internal database, SEQ ID NO:24 (protein, environmental sample) GENSGFLSPETSPNSLEILPPPPSEGSIAFLNDKANYDIGHTLKNEGRLAQAVSDANYKNLTDAFSKAFGETISEQNTPALYSLLQNVLQDSHDFAMRAAKDHYKRVRPFVIYKDHTCTPAEDTKMAKTGSYPSGHASFGWATALVLSEINPARETEILKRGYEFGQSRVICGAHWQSDVDSGRIMGAAVVASLHNNSDFISALAKAKEEFRKK
0.4

// next entry
// CRC25099: Acid phosphatase (Class A), accession WP_195761705.1, SEQ ID NO:23 (protein, listed as Pantoea sp.) LQSSGFLTAETAPDSLAILPPPPAENSVTFQSDKAQYEAGHVLRNVARTELASKDADYKNFGQAFSAAFGMEISESHTPVLYHLLSEVLQDSHDFAMRGAKDHYKRVRPFVIYKDSTCTPDKDKSMSTTGSYPSGHASFGWAAALILAEINPSRETEIIRRGYDFGESRVVCGAHWQSDVENGRIMGATVVASLHANAKFAELLSQAKNEFATLSAQDSK : Relative activity on ATP, pH 4.5 value = 0.7
